Every entry's value here was drawn from ChEMBL document CHEMBL5226356.

Target: Ryanodine receptor 2 (Mus musculus)
Assay: Inhibition of RyR2 in Casq2 gene knockout mouse cardiomyocytes assessed as reduction in calcium sparks frequency at 25 uM incubated for 10 mins
Type: cell-based
Settings: Cardiomyocyte
The source made the active and inactive calls. The calls are words filed in the database; no cut-off is given here.
Experimental endpoint: inhibition

{"columns": ["Smiles repr", "Experimental endpoint", "Observed"],
 "data": [
  ["CCCCC[C@H]1OC(=O)[C@H](C)N(C)C1=O", "inhibition", "inactive"],
  ["CCCCC[C@@H]1OC(=O)[C@@H](C)N(C)C(=O)[C@H](CCCCC)OC(=O)[C@@H](C)N(C)C(=O)[C@H](CCCCC)OC(=O)[C@@H](C)N(C)C(=O)[C@H](CCCCC)OC(=O)[C@@H](C)N(C)C(=O)[C@H](CCCCC)OC(=O)[C@@H](C)N(C)C(=O)[C@H](CCCCC)OC(=O)[C@@H](C)N(C)C1=O", "inhibition", "inactive"],
  ["CCCCC[C@@H]1OC(=O)[C@@H](C)N(C)C(=O)[C@H](CCCCC)OC(=O)[C@@H](C)N(C)C(=O)[C@H](CCCCC)OC(=O)[C@@H](C)N(C)C1=O", "inhibition", "Active"],
  ["CCCCC[C@@H]1OC(=O)[C@@H](C)N(C)C(=O)[C@H](CCCCC)OC(=O)[C@@H](C)N(C)C(=O)[C@H](CCCCC)OC(=O)[C@@H](C)N(C)C(=O)[C@H](CCCCC)OC(=O)[C@@H](C)N(C)C1=O", "inhibition", "Active"],
  ["CCCCC[C@@H]1OC(=O)[C@@H](C)N(C)C(=O)[C@H](CCCCC)OC(=O)[C@@H](C)N(C)C(=O)[C@H](CCCCC)OC(=O)[C@@H](C)N(C)C(=O)[C@H](CCCCC)OC(=O)[C@@H](C)N(C)C(=O)[C@H](CCCCC)OC(=O)[C@@H](C)N(C)C1=O", "inhibition", "inactive"],
  ["CCCCC[C@@H]1OC(=O)[C@@H](C)N(C)C(=O)[C@H](CCCCC)OC(=O)[C@@H](C)N(C)C1=O", "inhibition", "inactive"]
]}
